The measurements presented in this section are drawn from PubChem BioAssay AID328.

System: BDF1 mice, P388 leukemia ip, median survival T/C
Experiment: NCI In Vivo Anticancer Drug Screen. Data for tumor model P388 Leukemia (intraperitoneal) in B6D2F1 (BDF1) mice
Conditions: endpoint: median survival time; dose: 100.0 mg/kg/injection; schedule: Q04DX003 (ip); vehicle: Klucel (hydroxypropylcellulose) (HPC); higher = longer survival
Toxic doses and inconclusive results are not listed.
The entries below are paired with their reported T/C.
outcome_measure: T/C

[[record]]
compound = "C[C@H]1CCC/C=C/[C@@H]2C[C@H](O)C[C@H]2[C@H](O)/C=C/C(=O)O1"
outcome_measure = "T/C"
result = "109 % of control"

[[record]]
compound = "O=C(CC(=O)C(F)(F)C(F)(F)C(F)(F)F)c1csc2ccccc12"
outcome_measure = "T/C"
result = "104 % of control"

[[record]]
compound = "Oc1ccc2ccccc2c1N=Nc1ccccc1"
outcome_measure = "T/C"
result = "109 % of control"

[[record]]
compound = "O=C(NNc1ccccc1)c1ccccc1"
outcome_measure = "T/C"
result = "104 % of control"

[[record]]
compound = "O=S1(=O)C=Cc2ccccc21"
outcome_measure = "T/C"
result = "100 % of control"

[[record]]
compound = "COc1cccc2c1C(=O)c1c(OC)cccc1C2=O"
outcome_measure = "T/C"
result = "103 % of control"

[[record]]
compound = "O=[N+]([O-])c1cc([N+](=O)[O-])c(NN(c2ccc(Cl)cc2)c2ccc(Cl)cc2)c([N+](=O)[O-])c1"
outcome_measure = "T/C"
result = "118 % of control"

[[record]]
compound = "C#CCOCC1CN(c2ccccc2)C(=O)O1 (stereo unspecified)"
outcome_measure = "T/C"
result = "95 % of control"

[[record]]
compound = "O=C1NC(=O)C2(CCCCC2)N1"
outcome_measure = "T/C"
result = "104 % of control"

[[record]]
compound = "CC(=O)OCCC/C(=C/c1ccc(/C=C(\\CCCOC(C)=O)[N+](=O)[O-])cc1)[N+](=O)[O-]"
outcome_measure = "T/C"
result = "101 % of control"

[[record]]
compound = "Cc1ccc(NC(=S)N2CCC(CCCC3CCN(C(=S)Nc4ccc(C)c(C)c4)CC3)CC2)cc1C"
outcome_measure = "T/C"
result = "95 % of control"

